Test system: Plasmodium falciparum
assay remarks: Screen against P. falciparum Asexual Blood Stage (ABS), at 5uM
Format: functional, Dd2
measurement context: tested at 5 uM
Among all 65,000 compounds or so, about 2,100 (3.2%) showed an effect of 50% or more. The median lay at about -52%. Many of the other results were omitted from the sample, so strong results are more common in it than they were.
readout name: INHIBITION (%)
// return numeric value only (unit: %, not printed)

Check out these entries, answers already filled in.
[[record]]
molecule = "O=c1[nH]c(N2CCN(C3CC3)CC2)nc2c1cnn2-c1ccccc1"
reported_result = 50.1

[[record]]
molecule = "Cc1cccc(-c2noc(Cn3nc(C(N)=O)ccc3=O)n2)c1"
reported_result = -165

[[record]]
molecule = "O=C(O)C1CCCN1c1nc(-c2ccc(Cl)c(Cl)c2)cc(C(F)(F)F)n1 (stereo not given)"
reported_result = -8.45


Fill blank: measured INHIBITION of the molecule CN(C)c1nccc(C2CN(c3ccccc3)CCO2)n1 (stereo not given) is ____.
-40.1

Suppose we examine the molecule Cn1cc(CN(Cc2ccccn2)Cc2ccccc2Cl)cn1 ; what INHIBITION value has been reported?
-31.1
